# assay_info: Acute toxicity (Litchfield and Wilcoxon's Method), rabbit
# reported_conditions: in vivo, po, per os
quantity_measured: LD50 (mg/kg)

compound="COc1ccccc1OCC(O)COC(=O)C(C)c1ccc(CC(C)C)cc1 (stereo not shown)" quantity_measured=LD50 measured_value=3300

* * *

# assay_info: Pharmacokinetics, Ibuprofen plasma levels
# Format: in vivo, Charles River albino rats
# reported_conditions: rat, plasma, po; after Ibuprofen 27 mg/kg per os; read-out: time of Ibuprofen peak in plasma (converted)
quantity_measured: Tmax

compound="CC(C)Cc1ccc(C(C)C(=O)O)cc1 (stereo not shown) [Ibuprofen, 2-(p-isobutylphenyl)propionic acid, reference compound]" measured_value="30 min"

* * *

# assay_info: Pharmacokinetics, Ibuprofen plasma levels
# Type: in vivo, Charles River albino rats
# reported_conditions: rat, plasma, po; per os, equimolar: Ibuprofen 27 mg/kg, AFP 860 50 mg/kg; read-out: Ibuprofen peak plasma level
quantity_measured: Cmax (ng/mL)

molecule="CC(C)Cc1ccc(C(C)C(=O)O)cc1 (stereo not shown) [Ibuprofen, 2-(p-isobutylphenyl)propionic acid, reference compound]" measured_value=24000
